These entries and their values trace back to paper PMC5540273.

# System: ULK2;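 also: KINOMEscan kinase panel screen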
# RUN_PARAMETERS: concentration: 1 μM, replicates: in singlicate; n = 1
REPORTED_METRIC: %Inh (%)
Express it in %; write the number only.

Would you mind telling me what %Inh value was observed for "Cn1cc(-c2[nH]c3cc(NC(=O)[C@H](N)C4CCCCC4)cc4c3c2C=NNC4=O)cn1" ?
98.9

// query: COC(=O)Nc1nc2cc(Oc3ccc(NC(=O)Nc4cc(C(F)(F)F)ccc4F)cn3)ccc2[nH]1.Cl.Cl [GW681170]
0

// query: O=C(Nc1cccc(-c2nn3ccccc3c2-c2ccnc(Nc3cccc(C(F)(F)F)c3)n2)c1)c1c(F)cccc1F [GSK292658]
9

// query: Cc1ccc(C(=O)Nc2ccc(Nc3ccnc4cc(-c5nccs5)ccc34)cc2O)cc1.Cl [GW494702]
0
